// reported BDNF level in hippocampal slices in the presence of BzATP per item
test system: BDNF level in hippocampal slices; assay: BDNF protein assay (ELISA), in vitro study in hippocampal slices; type: cell-based, mouse; settings: P2rx7+/+ slices, + BzATP 100 µM, Mg2+-free; BBG 100 nM, RO-256981 3 µM, MCPG 200 µM, DHPG 100 µM
test readout: BDNF level in hippocampal slices in the presence of BzATP (pg/mL)

molecule	measured result
CC(N)(C(=O)O)c1ccc(C(=O)O)cc1 (stereo not drawn) [MCPG, α-Methyl-4-carboxyphenylglycine]	6.09
NC(C(=O)O)c1cc(O)cc(O)c1 (stereo not shown) [DHPG, 3,5-dihydroxyphenylglycine]	54.14
CCOc1ccc(Nc2ccc(/C(=C3C=C/C(=[N+](/CC)Cc4cccc(S(=O)(=O)[O-])c4)C=C/3C)c3ccc(N(CC)Cc4cccc(S(=O)(=O)O)c4)cc3C)cc2)cc1 [BBG, Brilliant blue G]	77.87
C[C@@H](CN1CCC(Cc2ccccc2)CC1)[C@@H](O)c1ccc(O)cc1.O=C(O)/C=C\C(=O)O [RO-256981]	15.75
